- target_system: T1, Bdf1 bromodomain 1 (GST-tagged, WT) (Saccharomyces cerevisiae (strain ATCC …, UniProt P35817))
- T1 chain: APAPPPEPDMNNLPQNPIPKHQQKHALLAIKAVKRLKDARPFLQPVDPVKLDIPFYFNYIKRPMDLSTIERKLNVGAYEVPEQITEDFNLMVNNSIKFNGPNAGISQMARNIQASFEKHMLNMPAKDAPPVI
- experiment_notes: histone peptide array probed with recombinant GST-bromodomain, signal normalised to myc peptide control
Non-standard residues stand in square brackets, D forms with d. No end group written: not given here. Arg(Me2a) = CN(C)C(=N)NCCC[C@H](N)C(=O)O; Arg(Me2s) = CN=C(NC)NCCC[C@H](N)C(=O)O; Lys(Me2) = CN(C)CCCC[C@H](N)C(=O)O; Lys(Me) = CNCCCC[C@H](N)C(=O)O
If the reported binding score equals or exceeds 0.02, assign Criterion met. If not, assign Criterion not met.

Ask | Hello, I need to know if PRKQLATKAA[Arg(Me2a)][Lys(Me)]SAPATGG [H3 16-35] has measured binding score not below 0.02. Thanks!
Reply | Criterion not met

Ask | Could you please find out whether SGRGKGGKGLGKGGAKRHR (S G Rme2a G Kac G G Kac G L G K G G A K R H R) has binding score that meets 0.02 or exceeds it?
Reply | Criterion met

Ask | Hello, I need to know if ARTKQTARKSTGGKAPRKQ (A Rme2a T Kme2 Q T A Rme2s Kme1 S T G G K A P R K Q) has measured binding score not below 0.02. Thanks!
Reply | Criterion not met

Ask | Entry ARTKQTARKSTGGKAPRKQ (A Rme2s T Kme2 Q T A Rme2s K S T G G K A P R K Q) : is its binding score no less than 0.02?
Reply | Criterion not met

Ask | Entry "A[Arg(Me2a)]TK(Ac)QTA[Arg(Me2s)][Lys(Me2)]STGGKAPRKQ" : is its binding score no less than 0.02?
Reply | Criterion not met

Ask | Please check the record SGRGKGGKGLGKGGAKRHR (S G R G K G G Kac G L G K G G A Kac R H R) and state if its binding score is at or above 0.02.
Reply | Criterion met

Ask | Textbook exercise: given the entry ARTKQTARKSTGGKAPRKQ (A Rme2s T Kme2 Q T A R Kme1 S T G G K A P R K Q) , state whether its binding score is greater than or equal to 0.02.
Reply | Criterion not met

Ask | # bool: binding score of EQKLISEEDLA (histone peptides carry modifications given inline in the sequence and in columns 4-7 (Kac, Kme1/2/3, Rme2a/s, Cit, pS/pT); N-terminus free or acetylated) [c-myc tag] >= 0.02
Reply | Criterion met

Ask | Identify whether the reported binding score of the following binder is 0.02 or greater: ARTKQTARKSTGGKAPRKQ (A Rme2s T Kme1 Q T A Rme2s K S T G G K A P R K Q)
Reply | Criterion not met
